target: Recombinant human IL-1β (BioLegend 579404) (human, UniProt P01584 117-269); experiment: cell-based or functional assay
Starred links: 1 amine or outer side, 2 acyl side, 3 side chain; linkers in the order of their positions; H or OH if unused. Non-standard residues stand in square brackets, D forms with d. dProc3CH24Pal = (2R,3S)-3-(4-pyridylmethyl)pyrrolidine-2-carboxylic acid, O=C([C@H]1[C@@H](Cc2ccncc2)CCN1[*:1])[*:2]; sbOH4Pal = (2S,3S)-2-amino-3-hydroxy-3-(4-pyridyl)propanoic acid, O=C([C@@H](N[*:1])[C@@H](O[*:3])c1ccncc1)[*:2]; Trp(4-Cl)(βS-Me) = C[C@@H](c1c[nH]c2cccc(Cl)c12)[C@H](N)C(=O)O; dPro(4R-(4-pyridylmethyl)) = O=C(O)[C@H]1C[C@@H](Cc2ccncc2)CN1; Trp(βS-Me,4-F) = C[C@@H](c1c[nH]c2cccc(F)c12)[C@H](N)C(=O)O; Bip(4'-COOH) = N[C@@H](Cc1ccc(-c2ccc(C(=O)O)cc2)cc1)C(=O)O; dPro(3S-(4-F-Bn)) = O=C(O)[C@@H]1NCC[C@@H]1Cc1ccc(F)cc1; Ala(pyrimidin-5-yl) = N[C@@H](Cc1cncnc1)C(=O)O; Phe(4-COOH) = N[C@@H](Cc1ccc(C(=O)O)cc1)C(=O)O; Bip = N[C@@H](Cc1ccc(-c2ccccc2)cc1)C(=O)O; Pro(cis-4-F) = O=C(O)[C@@H]1C[C@H](F)CN1; Ala(4-THP) = N[C@@H](CC1CCOCC1)C(=O)O; cisHyp = O=C(O)[C@@H]1C[C@H](O)CN1; d(αMeD) = C[C@@](N)(CC(=O)O)C(=O)O; 4Pal = N[C@@H](Cc1ccncc1)C(=O)O; aThr = C[C@H](O)[C@H](N)C(=O)O; d(αMeS) = C[C@@](N)(CO)C(=O)O; Dab = NCC[C@H](N)C(=O)O; Aib = CC(C)(N)C(=O)O
Each item that follows carries a reported MRC5 IC50.

{"Binder": "cyclo([Bip(4'-COOH)][4Pal][Phe(4-COOH)]G[cisHyp][Trp(βS-Me,4-F)][Aib]SW[Aib][Ala(pyrimidin-5-yl)]Q[Dab]G[dProc3CH24Pal]) (ring closure inferred) [SEQ ID NO 325]", "MRC5 IC50, nM": 0.027}
{"Binder": "cyclo([Bip(4'-COOH)][4Pal][Phe(4-COOH)]G[Pro(cis-4-F)][Trp(βS-Me,4-F)][Aib][aThr]W[d(αMeD)][Ala(4-THP)]Q[Dab]G[dPro(4R-(4-pyridylmethyl))]) (ring closure inferred) [SEQ ID NO 353]", "MRC5 IC50, nM": 0.017}
{"Binder": "cyclo([Bip(4'-COOH)][4Pal][Phe(4-COOH)]G[Pro(cis-4-F)][Trp(βS-Me,4-F)][Aib]SW[d(αMeD)][dF]Q[Dab]G[dPro(4R-(4-pyridylmethyl))]) (ring closure inferred) [SEQ ID NO 243]", "MRC5 IC50, nM": 0.022}
{"Binder": "cyclo([Bip(4'-COOH)][4Pal][Phe(4-COOH)]G[Pro(cis-4-F)][Trp(βS-Me,4-F)][Aib]SW[d(αMeS)]LQ[Dab]G[dPro(4R-(4-pyridylmethyl))]) (ring closure inferred) [SEQ ID NO 347]", "MRC5 IC50, nM": 0.025}
{"Binder": "cyclo([Bip][4Pal][Phe(4-COOH)]G[Pro(cis-4-F)][Trp(4-Cl)(βS-Me)][Aib]SW[d(αMeD)][Ala(pyrimidin-5-yl)]Q[Dab]G[dPro(4R-(4-pyridylmethyl))]) (ring closure inferred; not fully specified (N-terminus); printed as cyclic, Bip-4Pal-Phe4COOH-G-Proc4F-SbMeW4Cl-Aib-S-W-daMeD-PyrimAla-Q-Dab-G-dProc4CH24Pal) [SEQ ID NO 292]", "MRC5 IC50, nM": 0.015}
{"Binder": "cyclo([Bip(4'-COOH)][4Pal][Phe(4-COOH)]G[Pro(cis-4-F)][Trp(βS-Me,4-F)][Aib]SW[d(αMeD)][sbOH4Pal]Q[Dab]G[dPro(3S-(4-F-Bn))]) (ring closure inferred) [SEQ ID NO 263]", "MRC5 IC50, nM": 0.017}
